pIC50 values for Coagulation factor XI (Homo sapiens), compiled from several publications.
pIC50: −log10 of the molar value.
QUANTITY_MEASURED: pIC50

Request the reported pIC50 associated with O=C(/C=C/c1cc(Cl)ccc1-n1cnnn1)N[C@@H](CC(=O)N1CCN(CC2CC2)CC1)C(=O)Nc1ccc(C(=O)O)cc1
8.11

1 = CC(C)C[C@@H]1NC(=O)[C@@H](C2CCCCC2)NC(=O)[C@H](c2ccccc2)C/C=C/Cc2[nH]c3ccc(Cl)cc3c2CNC1=O
2 = O=c1c2ccccc2nc(-c2ccc(OS(=O)(=O)O)cc2)n1CCCCCCn1c(-c2ccc(OS(=O)(=O)O)cc2)nc2ccccc2c1=O
Compare pIC50: is it lower for 1 or for 2 ? Please reply using the label of the selected record.
1
(1: 3.87, 2: 4.47)
